Data credit: patent US7314953B2

system: non-CF HBE cells; experiment: Short circuit current (Ussing chamber), electrogenic sodium transport in non-CF HBE cells derived from COPD patients; type: cell-based, human; conditions: non-CF cells derived from COPD patients; read-out: half-maximal inhibition concentration, amiloride sensitive sodium transport
experimentalEndpoint: IC50 (µM)

smilesrepr=O=C(C=CC=CC=Cc1ccccc1)NO quantityunit=µM recordedmeasurement=13
